tested on: PPARa:RXRa (NR concentration 270 nM, RXRa partner concentration 90 nM); assay: PBM binding z-score (relative to random genomic background probes); higher = stronger binding; sequences stand for … in GC…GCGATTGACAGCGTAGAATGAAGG
Please map values of PBM binding z-score to classes as shown: zone 1: < 2; zone 2: ≥ 2 and < 5; zone 3: ≥ 5

- sequence_content: "TCTATTAGTTGATTAGGGCAACGGAAACAGCGGA"
  assigned_label: "zone 1"
- sequence_content: "CGGACTAGGTCAAGGACAGTGAATCTCCGCACGC"
  assigned_label: "zone 2"
- sequence_content: "CGTCCAAGGTCAAAGTCAGTGAAAGAGACTCGAA"
  assigned_label: "zone 3"
- sequence_content: "CCTACTGGGCGAAAGGTCATTGATTCCAATGCTC"
  assigned_label: "zone 3"
- sequence_content: "TCATGTAGGTAAATGCTAGGTGAAAGTCCGATCT"
  assigned_label: "zone 1"
- sequence_content: "GGAACGAGGGCACTCGAGTTGATAGCATGGCGAT"
  assigned_label: "zone 1"
- sequence_content: "GCTTGTAGATCAAGGTTAATAAAGACTAAGCTAA"
  assigned_label: "zone 1"
- sequence_content: "CCTTACGGGTCGAGGTTATAGCACGGGTGGTACG"
  assigned_label: "zone 2"
- sequence_content: "TAGCCTAGGTCAGATCGGGCCCGTATACGCTATA"
  assigned_label: "zone 1"
- sequence_content: "CCGACTAGGGCATAAGGTTACCATAAGCCAGCCC"
  assigned_label: "zone 2"
- sequence_content: "ATCGAAACGTCGAAGGTGAGTATACCCACCCGAA"
  assigned_label: "zone 1"
- sequence_content: "AGAATGAGGTTAATAAGATCAGGGAATTGCGGTC"
  assigned_label: "zone 2"
- sequence_content: "ATACCAAGGTGATCGTGAGGTCGTTTATACTAAC"
  assigned_label: "zone 1"
- sequence_content: "TAGCCTAGGACATTGGGCCAGTATAGTACGCATC"
  assigned_label: "zone 1"
- sequence_content: "AGAATGAGGTTACCAAAGATCACGGAAACGCTTG"
  assigned_label: "zone 2"
- sequence_content: "CCTACTGGGCCAAAGGTCACTGATTCCAATGCTC"
  assigned_label: "zone 3"
- sequence_content: "CGTCCAAGGTCAAGGTCAGTGAAAGAGACTCGAA"
  assigned_label: "zone 3"

---

test system: VDR:RXRa (NR concentration 270 nM, RXRa partner concentration 90 nM); experiment: PBM binding z-score (relative to random genomic background probes); higher = stronger binding; sequences stand for … in GC…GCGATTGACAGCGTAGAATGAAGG
Please map values of PBM binding z-score to classes as shown: low: < 0.8; moderate: ≥ 0.8 and < 2; high: ≥ 2

- sequence_content: "TCTTGTGGATCAATAGAGGTTAAGAAAGTGCGCT"
  assigned_label: "moderate"
- sequence_content: "CCTACTGCGCCACGAAAGGTCATTGATTCAGTGA"
  assigned_label: "high"
- sequence_content: "CAAACTCGGTCACAGAGGTCAAAGTCCGTGCGTA"
  assigned_label: "high"
- sequence_content: "ATCTCTAGGTAAAGACAGTTCAGTGAATGCAAAT"
  assigned_label: "moderate"
- sequence_content: "GGAACGAGGGCAATTTGATAGCAGAGTTTGATGG"
  assigned_label: "low"
- sequence_content: "GCTGCTAGGTCAACTGATGTTCAGCTAAAGCTCG"
  assigned_label: "moderate"
- sequence_content: "GCTAGCCGGCCATTTGGGTCACTCAATGACGGGC"
  assigned_label: "low"
- sequence_content: "ATCTCTAGGTAAAAAGTTCAGTGAAAGAGAGGAC"
  assigned_label: "moderate"
- sequence_content: "CATACAGGGTCAGCTAGCCCAGAGTAGGGACGGC"
  assigned_label: "high"
- sequence_content: "TCGAGCAGGCCAGAGGGTCACTCAAGAGGTACGG"
  assigned_label: "moderate"
- sequence_content: "CGAACTAGGTCAGAACAGGACAATGAAGGATGAT"
  assigned_label: "moderate"
- sequence_content: "ACTATTAGTTGACTTAGCGCAACCGATACGACGC"
  assigned_label: "low"
- sequence_content: "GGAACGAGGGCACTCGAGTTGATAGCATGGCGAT"
  assigned_label: "high"
- sequence_content: "CCTACTAGGCCAAGGTCATTGATCAGTCAAAGCA"
  assigned_label: "high"
- sequence_content: "TGAATGAGGTTAAACATCAGGGAACGTGGCGTCG"
  assigned_label: "moderate"
- sequence_content: "CGAACTAGGTCAGGGACAGTGAATCTCCGCACGC"
  assigned_label: "low"
- sequence_content: "GGAACGAGGGCACGTTGATAGCAGAGTTTGATGG"
  assigned_label: "moderate"
- sequence_content: "ATCTCTAGGTAACCAAGTTCCGTGAATGCCGAAC"
  assigned_label: "low"
- sequence_content: "ATCGAAAGGGCGACGAGGTGAGTATACACCGTTT"
  assigned_label: "moderate"
- sequence_content: "CGAACTAGGTCAGTGACAGGACAGTGAATAGTAA"
  assigned_label: "low"
- sequence_content: "TCGAGTAGGTTACCAATGGGGGATTCAGCTTTCT"
  assigned_label: "moderate"
- sequence_content: "GCTGCTAGGTCAACTGATCGTCAGCTAAAGCTCG"
  assigned_label: "moderate"
- sequence_content: "TCATATAGGAAATACAGGTGAAAGTCGGCATCTA"
  assigned_label: "moderate"
- sequence_content: "TCTTGTACATCAGCAGGTTAAGAAAGCTGGCCAA"
  assigned_label: "low"
- sequence_content: "CCTTTCGGGTCACTCCAGGTTATAGCATCGGAGT"
  assigned_label: "high"
- sequence_content: "GCTTGTAGATCAAGGTTAAGTAAGACTAAGCTAA"
  assigned_label: "low"
- sequence_content: "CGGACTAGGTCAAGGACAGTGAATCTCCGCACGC"
  assigned_label: "moderate"
- sequence_content: "TAGCCTAGGTCATTCAGGGGCCAGTATAGAAAGC"
  assigned_label: "high"
- sequence_content: "CGAACGAGGACATGAGTTGATAGCAAATGCCGAT"
  assigned_label: "low"
- sequence_content: "ACTAGCAGGCCAAGTTTGGGTCACTGAAACAAAG"
  assigned_label: "low"
- sequence_content: "CGTCCAAGATCAGCAGGTCAGTGAAAGCGACGTG"
  assigned_label: "low"
- sequence_content: "TAGCCTAGGTCAGAGCGGGCCAGTATACGCTATA"
  assigned_label: "low"
- sequence_content: "CCAAACAGGTGAAAGGTAACTCAGTCTGGTACGC"
  assigned_label: "moderate"
- sequence_content: "TCTTGTAGTTCAACAGGAGGTTAAGAAAGATCGA"
  assigned_label: "high"
- sequence_content: "AGAATGAGGTTACCAAAGATCTGGGAAACGCTTG"
  assigned_label: "moderate"
- sequence_content: "CATACAGGGTCACCTAGGCCAGAGTAGGGACGGC"
  assigned_label: "high"
- sequence_content: "CAAACTAGGTCATGGTCAAAGTCGGTTTGTGCCA"
  assigned_label: "high"
- sequence_content: "TCGAGTAGGTTAGTCGGGGCATTCACCCAACATA"
  assigned_label: "high"
- sequence_content: "CCTACTGGGCCATTCAGAGGTCATTAATCATATG"
  assigned_label: "high"
- sequence_content: "CGTCCAAGGCCAGAGAGGTCAGTGAATGCCGAGT"
  assigned_label: "high"
- sequence_content: "CCTAGCAGGCCAAGCTGGGTCACTCAAGGCTTGA"
  assigned_label: "low"
- sequence_content: "GCGACTGGGGGAAAGCAGGTTACCATAAGGTTGG"
  assigned_label: "low"
